study_target: HLA-A*68:02
assay_comment: IEDB peptide-MHC binding, purified MHC/competitive/radioactivity; filed as Kd, often an IC50 or EC50 that approximates it; bounds were set here for any values at or beyond the usual limits of such assays
condition_label: source organism: Dengue virus 1 Brazil/97-11/1997
property_measured: Kd

item_sequence=DTMTYKCPRI result="64 nM"

* * *

study_target: HLA-A*31:01
assay_comment: IEDB peptide-MHC binding, purified MHC/competitive/fluorescence; bounds were set here for any values at or beyond the usual limits of such assays
condition_label: source organism: Homo sapiens
pIC50: −log10 of the molar value.
# maps each entry to its pIC50
property_measured: pIC50

item_sequence=SLMASSPTSI property_measured=pIC50 result="≤ 4.70"
item_sequence=YPDPVIKV property_measured=pIC50 result="≤ 4.70"

* * *

study_target: HLA-A*30:01
assay_comment: IEDB peptide-MHC binding, purified MHC/competitive/fluorescence; filed as Kd, often an IC50 or EC50 that approximates it; bounds were set here for any values at or beyond the usual limits of such assays
condition_label: source organism: Human immunodeficiency virus 1
property_measured: Kd (nM)

item_sequence=KSLFNTIAVLY property_measured=Kd value_operator== number=1350
item_sequence=EIKSLFNTI property_measured=Kd value_operator=≥ number=20000

* * *

study_target: HLA-B*46:01
assay_comment: IEDB peptide-MHC binding, purified MHC/direct/fluorescence; filed as Kd, often an IC50 or EC50 that approximates it; bounds were set here for any values at or beyond the usual limits of such assays
condition_label: source organism: Convict Creek 107 virus
pKd: −log10 of the molar value.
property_measured: pKd

item_sequence=VLFKTESGF property_measured=pKd result="≤ 4.70"

* * *

study_target: HLA-A*11:01
assay_comment: IEDB peptide-MHC binding, purified MHC/competitive/radioactivity; filed as Kd, often an IC50 or EC50 that approximates it; bounds were set here for any values at or beyond the usual limits of such assays
condition_label: source organism: Vaccinia virus WR
Please respond with met when measured Kd is strictly beneath 60 nM, and with not met in all other cases.

item_sequence=TFRERYSYK label_value=met
item_sequence=NAKVGDDVK label_value="not met"
item_sequence=KLVYIFEPEK label_value="not met"
item_sequence=FIRRKYLIY label_value="not met"
item_sequence=RIENEMKINR label_value="not met"
item_sequence=HTTAFFNTCK label_value=met
item_sequence=AFDAPTLYVK label_value="not met"
item_sequence=QLVFNSISAR label_value="not met"
item_sequence=ASGQRCHFIK label_value=met
item_sequence=MFMLIFNVK label_value="not met"

* * *

study_target: HLA-A*68:02
assay_comment: IEDB peptide-MHC binding, purified MHC/direct/fluorescence; filed as Kd, often an IC50 or EC50 that approximates it; bounds were set here for any values at or beyond the usual limits of such assays
condition_label: source organism: Zaire ebolavirus
pKd: −log10 of the molar value.
A collection of sequences and their measured pKd
property_measured: pKd

item_sequence=RLAKLTEAI result="≤ 4.70"
item_sequence=HQKKNEISF result="≤ 4.70"
item_sequence=ATAAATEAY result="≤ 4.70"

* * *

study_target: HLA-B*57:01
assay_comment: IEDB peptide-MHC binding, purified MHC/competitive/radioactivity; filed as Kd, often an IC50 or EC50 that approximates it; bounds were set here for any values at or beyond the usual limits of such assays
condition_label: source organism: Dengue virus 4 Philippines/H241/1956
pKd: −log10 of the molar value.
Each entry below carries its recorded pKd.
property_measured: pKd

item_sequence=RTSCLQKQSH number=6.21
item_sequence=MAILGETAW number=7.63
item_sequence=TTRLENIMW number=7.88

* * *

study_target: HLA-B*39:01
assay_comment: IEDB peptide-MHC binding, purified MHC/competitive/fluorescence; filed as Kd, often an IC50 or EC50 that approximates it; bounds were set here for any values at or beyond the usual limits of such assays
condition_label: source organism: Escherichia coli B171
property_measured: Kd (nM)

item_sequence=HELSLFWPL property_measured=Kd number=0.2

* * *

study_target: HLA-A*03:01
assay_comment: IEDB peptide-MHC binding, purified MHC/competitive/fluorescence; bounds were set here for any values at or beyond the usual limits of such assays
condition_label: source organism: Sudan ebolavirus
pIC50: −log10 of the molar value.
property_measured: pIC50

item_sequence=AQHSTTLFK number=4.52

* * *

study_target: HLA-B*40:01
assay_comment: IEDB peptide-MHC binding, purified MHC/competitive/radioactivity; filed as Kd, often an IC50 or EC50 that approximates it; bounds were set here for any values at or beyond the usual limits of such assays
condition_label: source organism: SARS coronavirus Tor2
pKd: −log10 of the molar value.
// reported pKd for each item listed
property_measured: pKd

item_sequence=SEAREHLKNG study_target=HLA-B*40:01 property_measured=pKd value_operator=≤ number=4.41
item_sequence=TEIEPKLDG study_target=HLA-B*40:01 property_measured=pKd value_operator=≤ number=4.12
item_sequence=HEGHQTAAF study_target=HLA-B*40:01 property_measured=pKd value_operator== number=5.53
item_sequence=KEQYCALSPG study_target=HLA-B*40:01 property_measured=pKd value_operator== number=5.33

* * *

study_target: HLA-B*40:01
assay_comment: IEDB peptide-MHC binding, purified MHC/direct/fluorescence; filed as Kd, often an IC50 or EC50 that approximates it; bounds were set here for any values at or beyond the usual limits of such assays
condition_label: source organism: Vibrio parahaemolyticus
property_measured: Kd

item_sequence=YPKCDLVEL property_measured=Kd result="≥ 20 µM"

* * *

study_target: HLA-A*02:01
assay_comment: IEDB peptide-MHC binding, purified MHC/direct/fluorescence; filed as Kd, often an IC50 or EC50 that approximates it; bounds were set here for any values at or beyond the usual limits of such assays
condition_label: source organism: Buffalopox virus
pKd: −log10 of the molar value.
property_measured: pKd

item_sequence=RYPGVMYAF result="≤ 4.70"

* * *

study_target: HLA-B*46:01
assay_comment: IEDB peptide-MHC binding, purified MHC/direct/fluorescence; filed as Kd, often an IC50 or EC50 that approximates it; bounds were set here for any values at or beyond the usual limits of such assays
condition_label: source organism: Influenza A virus (A/South Carolina/1/1918(H1N1))
pKd: −log10 of the molar value.
property_measured: pKd

item_sequence=RLFFKCIYR result="≤ 4.70"

* * *

study_target: HLA-A*02:01
assay_comment: IEDB peptide-MHC binding, purified MHC/direct/fluorescence; filed as Kd, often an IC50 or EC50 that approximates it; bounds were set here for any values at or beyond the usual limits of such assays
condition_label: source organism: Bacillus anthracis
property_measured: Kd

item_sequence=WFREDRSPV result="≥ 20 µM"

* * *

study_target: HLA-B*27:05
assay_comment: IEDB peptide-MHC binding, purified MHC/competitive/fluorescence; filed as Kd, often an IC50 or EC50 that approximates it; bounds were set here for any values at or beyond the usual limits of such assays
condition_label: source organism: Mycobacterium tuberculosis C
property_measured: Kd

item_sequence=ALFDRPAFK result="≥ 20 µM"

* * *

study_target: HLA-A*26:01
assay_comment: IEDB peptide-MHC binding, purified MHC/competitive/radioactivity; filed as Kd, often an IC50 or EC50 that approximates it; bounds were set here for any values at or beyond the usual limits of such assays
condition_label: source organism: Mammarenavirus lassaense
pKd: −log10 of the molar value.
property_measured: pKd

item_sequence=HDLMMGYAWI result="≤ 4.16"

* * *

study_target: HLA-A*02:01
assay_comment: IEDB peptide-MHC binding, purified MHC/competitive/radioactivity; filed as Kd, often an IC50 or EC50 that approximates it; bounds were set here for any values at or beyond the usual limits of such assays
condition_label: source organism: Dengue virus 3 China/80-2/1980
property_measured: Kd (nM)

item_sequence=ALFSGVSWI number=0.51
item_sequence=YILWENNIKL number=5.85

* * *

study_target: HLA-A*33:01
assay_comment: IEDB peptide-MHC binding, purified MHC/competitive/radioactivity; filed as Kd, often an IC50 or EC50 that approximates it; bounds were set here for any values at or beyond the usual limits of such assays
condition_label: source organism: Mammarenavirus lassaense
property_measured: Kd

item_sequence=SVANGVPVH result="≥ 77.7 µM"

* * *

study_target: HLA-A*02:01
assay_comment: IEDB peptide-MHC binding, purified MHC/direct/fluorescence; filed as Kd, often an IC50 or EC50 that approximates it; bounds were set here for any values at or beyond the usual limits of such assays
condition_label: source organism: Bacillus cereus
pKd: −log10 of the molar value.
property_measured: pKd

item_sequence=GIYCTVPFI property_measured=pKd number=6.95

* * *

study_target: HLA-A*31:01
assay_comment: IEDB peptide-MHC binding, purified MHC/competitive/radioactivity; filed as Kd, often an IC50 or EC50 that approximates it; bounds were set here for any values at or beyond the usual limits of such assays
condition_label: source organism: Dengue virus 2 Jamaica/1409/1983
Listing of recorded Kd by entry.
property_measured: Kd (nM)

item_sequence=DYMPSMKRFR property_measured=Kd unit_tag=nM value_operator== number=43.5
item_sequence=MLNILNRRR property_measured=Kd unit_tag=nM value_operator== number=8.37
item_sequence=KVVDLGCGR property_measured=Kd unit_tag=nM value_operator== number=1.29
item_sequence=YQNKVVRVQR property_measured=Kd unit_tag=nM value_operator=≥ number=36700
item_sequence=MSAAIKDNR property_measured=Kd unit_tag=nM value_operator== number=8.82
